system: Avi-KRAS G12V (1-169) GppNHp/RAF1 RBD-3xFLAG (52-151) (Homo sapiens, UniProt P01116, G12V)
Construct: Avi-KRAS G12V (1-169)
Sequence (P01116 1-169 isoform P01116-2 G12V): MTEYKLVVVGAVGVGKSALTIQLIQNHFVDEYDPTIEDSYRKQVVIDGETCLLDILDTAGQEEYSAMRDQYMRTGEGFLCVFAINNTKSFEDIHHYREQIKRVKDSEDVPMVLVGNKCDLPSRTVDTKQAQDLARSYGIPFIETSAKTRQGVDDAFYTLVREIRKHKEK
assay.name: Raf1-KRAS G12V-GppNHP disruption HTRF assay (Biological Example 1)
Assay type: binding
condition.notes: KRAS G12V, GppNHp-loaded; class symbols
pIC50: −log10 of the molar value.
outcome.measure: pIC50

Illustrative cases are given below, each with its answer.
CCN(c1nc(OC[C@@]23CCCN2C[C@H](F)C3)nc2c(F)c(-c3ccc(F)c4sc(N)c(C#N)c34)c(C(F)(F)F)cc12)[C@H]1CCN(C(=O)C2CCN(C(C)=O)CC2)C1 (atropisomer, axis not shown) :: > 7.00
C=C(C)C(=O)N1CC[C@@H](N(C)c2nc(OC[C@@]34CCCN3C[C@H](F)C4)nc3c(F)c(-c4ccc(F)c5sc(N)c(C#N)c45)c(C(F)(F)F)cc23)[C@H]1C :: 6.00 to 7.00
CC#CC(=O)N1CC[C@H](N(CC)c2nc(OC[C@@]34CCCN3C[C@H](F)C4)nc3c(F)c(-c4ccc(F)c5sc(N)c(C#N)c45)c(C(F)(F)F)cc23)C1 (atropisomer, axis not shown) :: > 7.00

Query :: Recorded pIC50 of CCN(c1nc(OC[C@@]23CCCN2C[C@H](F)C3)nc2c(F)c(-c3ccc(F)c4sc(N)c(C#N)c34)c(C(F)(F)F)cc12)[C@H]1CCN(C(=O)OCC2CN(C(C)=O)C2)C1 (atropisomer, axis not shown) , please.
Result :: > 7.00

---

system: Avi-KRAS G12C (2-169) GTP/RAF1 RBD-3xFLAG (51-131) (Homo sapiens, UniProt P01116, G12C)
Construct: Avi-KRAS G12C (2-169)
Sequence (P01116 2-169 isoform P01116-2 G12C): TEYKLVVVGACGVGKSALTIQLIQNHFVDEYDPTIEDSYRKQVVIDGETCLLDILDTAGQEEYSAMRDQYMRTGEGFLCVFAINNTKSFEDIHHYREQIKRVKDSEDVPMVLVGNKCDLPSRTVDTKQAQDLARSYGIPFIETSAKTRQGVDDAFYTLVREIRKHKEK
assay.name: Raf1-KRAS G12C-GTP disruption HTRF assay (Biological Example 3)
Assay type: binding
condition.notes: KRAS G12C, GTP-loaded
pIC50: −log10 of the molar value.
# reported pIC50; entries follow

Here's what some known entries look like.
CCN(c1nc(OC[C@@]23CCCN2C[C@H](F)C3)nc2c(F)c(-c3ccc(F)c4sc(N)c(C#N)c34)c(C(F)(F)F)cc12)[C@H]1CCN(C(=O)c2ccon2)C1 (atropisomer, axis not shown) [Compound 554] :: 6.00 to 7.00
CCN(c1nc(OC[C@@]23CCCN2C[C@H](F)C3)nc2c(F)c(-c3ccc(F)c4sc(N)c(C#N)c34)c(C(F)(F)F)cc12)[C@H]1CCN(C(=O)O[C@@H]2CO[C@H]3OCC[C@H]32)C1 (atropisomer, axis not shown) [Compound 834] :: ≥ 7.00
CCN(c1nc(OC[C@@]23CCCN2C[C@H](F)C3)nc2c(F)c(-c3ccc(F)c4sc(N)c(C#N)c34)c(C(F)(F)F)cc12)[C@H]1C[C@H](C)N(C(=O)[C@@H]2CCO2)C1 (atropisomer, axis not shown) [Compound 922] :: ≥ 7.00
CCN(c1nc(OC[C@@]23CCCN2C[C@H](F)C3)nc2c(F)c(-c3ccc(F)c4sc(N)c(C#N)c34)c(C(F)(F)F)cc12)[C@H]1CCN(C(=O)CC(F)F)C1 (atropisomer, axis not shown) [Compound 611] :: ≥ 7.00
CN(Cc1cccc(=O)n1C)c1nc(OC[C@@]23CCCN2C[C@H](F)C3)nc2c(F)c(-c3ccc(F)c4sc(N)c(C#N)c34)c(C(F)(F)F)cc12 (atropisomer, axis not shown) [Compound 879] :: < 5.00

Query :: Consider the molecule C[C@H](c1cccnc1)N(C)c1nc(OC[C@@]23CCCN2C[C@H](F)C3)nc2c(F)c(-c3ccc(F)c4sc(N)c(C#N)c34)c(C(F)(F)F)cc12 (atropisomer, axis not shown; (aS)) [Compound 904] and give its measured pIC50.
Result :: 5.00 to 6.00

Query :: Follow-up entry: CCN(c1nc(OC[C@@]23CCCN2C[C@H](F)C3)nc2c(F)c(-c3ccc(F)c4sc(N)c(C#N)c34)c(C(F)(F)F)cc12)[C@H]1C[C@H]2[C@@H](C)OC(=O)N2C1 (atropisomer, axis not shown) [Compound 823]
Result :: 6.00 to 7.00

Query :: Entry CCN(c1nc(OC[C@@]23CCCN2C[C@H](F)C3)nc2c(F)c(-c3ccc(F)c4sc(N)c(C#N)c34)c(C(F)(F)F)cc12)[C@H]1CCN(C(=O)[C@@H]2CCO2)C1 (atropisomer, axis not shown) [Compound 603] please
Result :: ≥ 7.00

Query :: Next: CCN(c1nc(OCC23CCCN2CC(F)C3)nc2c(F)c(-c3ccc(F)c4sc(N)c(C#N)c34)c(C(F)(F)F)cc12)C1CCN(C(=O)c2ccc(Cl)s2)C1 (centres unmarked) [Compound 929]
Result :: 6.00 to 7.00

Query :: Record: CCN(c1nc(OC[C@@]23CCCN2C[C@H](F)C3)nc2c(F)c(-c3ccc(F)c4sc(N)c(C#N)c34)c(C(F)(F)F)cc12)[C@H]1C[C@H](COC)N(C(=O)[C@@H]2CCO2)C1 (atropisomer, axis not shown) [Compound 853]
Result :: 6.00 to 7.00

Query :: Lookup CCN(c1nc(OC[C@@]23CCCN2C[C@H](F)C3)nc2c(F)c(-c3ccc(F)c4sc(N)c(C#N)c34)c(C(F)(F)F)cc12)[C@H]1CCN(C(=O)O[C@H]2CO[C@H]3OCC[C@H]32)C1 (atropisomer, axis not shown) [Compound 816]
Result :: ≥ 7.00

---

Entries and their pIC50
Tested on: HPAC cells (KRAS G12D)
assay.name: 3D Cell viability assay in HPAC cells (Biological Example 6)
Format: cell-based
condition.notes: Homo sapiens, HPAC, 72 h, HPAC (KRAS G12D) spheroids
pIC50: −log10 of the molar value.

Query :: Which measured pIC50 value corresponds to CCN(c1nc(OC[C@@]23CCCN2C[C@H](F)C3)nc2c(F)c(-c3ccc(F)c4sc(N)c(C#N)c34)c(C(F)(F)F)cc12)[C@H]1CCN(C(C)=O)C1 [Compound 262] ?
Result :: ≥ 7.00

Query :: Then what about the compound CCN(c1nc(OC[C@@]23CCCN2C[C@H](F)C3)nc2c(F)c(-c3ccc(F)c4sc(N)c(C#N)c34)c(C(F)(F)F)cc12)[C@@H]1CCN(C(=O)C2CC2)[C@@H]1C (atropisomer, axis not shown) [Compound 524] ?
Result :: < 6.00

Query :: What do you get for CCC(=O)N1CC[C@@H](N(C)c2nc(OC[C@@]34CCCN3C[C@H](F)C4)nc3c(F)c(-c4ccc(F)c5sc(N)c(C#N)c45)c(C(F)(F)F)cc23)[C@H]1C [Compound 260] ?
Result :: 6.00 to 7.00

Query :: Same question, CCN(c1nc(OC[C@@]23CCCN2C[C@H](F)C3)nc2c(F)c(-c3ccc(F)c4sc(N)c(C#N)c34)c(C(F)(F)F)cc12)[C@H]1C[C@H](C)N(C(=O)N2CC(OC)C2)C1 (atropisomer, axis not shown) [Compound 764] this time
Result :: < 6.00

Query :: Let us now turn to Cc1c(C(=O)N(C)C)nn2c1CN(c1nc(OC[C@@]34CCCN3C[C@H](F)C4)nc3c(F)c(-c4ccc(F)c5sc(N)c(C#N)c45)c(C(F)(F)F)cc13)CC2 [Compound 501]
Result :: 6.00 to 7.00

Query :: Also, C[C@@H]1[C@H](N(C)c2nc(OC[C@@]34CCCN3C[C@H](F)C4)nc3c(F)c(-c4ccc(F)c5sc(N)c(C#N)c45)c(C(F)(F)F)cc23)CCN1C(=O)C1CC1 [Compound 258] please.
Result :: 6.00 to 7.00

Query :: Repeat for the following compound: CCN(c1nc(OC[C@@]23CCCN2C[C@H](F)C3)nc2c(F)c(-c3ccc(F)c4sc(N)c(C#N)c34)c(C(F)(F)F)cc12)[C@H]1C[C@H](C)N(C(=O)[C@@H]2CC2(F)F)C1 (atropisomer, axis not shown) [Compound 751]
Result :: ≥ 7.00

---

Entries and their pIC50
Test system: SW620 cells (KRAS G12V)
assay.name: Cell-based pERK HTRF assay in SW620 cell (Biological Example 4)
condition.notes: Homo sapiens, SW-620, SW620 (KRAS G12V) cells, pERK HTRF; class symbols
pIC50: −log10 of the molar value.

COC(=O)N1CC[C@H](N(c2nc(OC[C@@]34CCCN3C[C@H](F)C4)nc3c(F)c(-c4ccc(F)c5sc(N)c(C#N)c45)c(C(F)(F)F)cc23)C2CC2)C1 (atropisomer, axis not shown) :: > 7.00

From here, focus on the item given below.
Query :: Entry CCN(c1nc(OC[C@@]23CCCN2C[C@H](F)C3)nc2c(F)c(-c3ccc(F)c4sc(N)c(C#N)c34)c(C(F)(F)F)cc12)[C@H]1CCN(C(=O)[C@@H](C)OC)C1 (atropisomer, axis not shown) , system SW620 cells (KRAS G12V): what pIC50 was measured?
Result :: > 7.00

Reference for the values: patent US20260042764A1
